Reference source: patent US8188098B2

# Target of assay: GPR119 receptor (Mesocricetus auratus, UniProt A0A1U8CD06)
# Construct: which endogenously express the GPR119 receptor; host or cells: HIT-T15 hamster pancreatic islet cells
# Sequence (A0A1U8CD06 1-334): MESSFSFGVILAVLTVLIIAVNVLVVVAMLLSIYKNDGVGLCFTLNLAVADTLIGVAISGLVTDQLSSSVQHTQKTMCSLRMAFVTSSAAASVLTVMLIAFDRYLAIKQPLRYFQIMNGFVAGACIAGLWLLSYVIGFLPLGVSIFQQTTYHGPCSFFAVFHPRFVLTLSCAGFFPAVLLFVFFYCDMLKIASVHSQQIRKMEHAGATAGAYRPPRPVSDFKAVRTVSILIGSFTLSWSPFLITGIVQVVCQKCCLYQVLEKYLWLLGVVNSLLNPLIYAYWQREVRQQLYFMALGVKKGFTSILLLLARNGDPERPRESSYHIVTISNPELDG
# Assay details: cAMP assay in HIT-T15 hamster pancreatic islet cells (functional agonist activity)
# Format: cell-based
# Measurement context: HIT-T15 cells endogenously expressing GPR119; 30 min at 25° C.; intracellular cAMP
Recorded EC50 by entry

Molecule: CC(C)(C)OC(=O)N1CCC(n2ncc3c(Oc4ccc([N+](=O)[O-])cc4F)ncnc32)CC1 [Example 66]
Target of assay: GPR119 receptor (Mesocricetus auratus, UniProt A0A1U8CD06)
EC50 (µM): 0.75
//
Molecule: CS(=O)(=O)c1ccc(Oc2ncnc3c2cnn3C2CCN(C(=O)OCC(F)(F)F)CC2)cc1 [Example 113]
Target of assay: GPR119 receptor (Mesocricetus auratus, UniProt A0A1U8CD06)
EC50 (µM): 0.16
//
Molecule: CC(C)(C)OC(=O)N1CCC(n2ncc3c(Oc4ccccc4C#N)nc(N)nc32)CC1 [Example 174]
Target of assay: GPR119 receptor (Mesocricetus auratus, UniProt A0A1U8CD06)
EC50 (µM): 3.4
//
Molecule: CC(C)(OC(=O)N1CCC(n2ncc3c(Oc4ccc(S(C)(=O)=O)cc4)ncnc32)CC1)C(Cl)(Cl)Cl [Example 114]
Target of assay: GPR119 receptor (Mesocricetus auratus, UniProt A0A1U8CD06)
EC50 (µM): 0.044
//
Molecule: CC(C)(C)OC(=O)N1CCC(n2ncc3c(Oc4ccc(OC(F)(F)F)cc4)ncnc32)CC1 [Example 42]
Target of assay: GPR119 receptor (Mesocricetus auratus, UniProt A0A1U8CD06)
EC50 (µM): 1.8
//
Molecule: CC(C)(C)OC(=O)N1CCC(n2ncc3c(Oc4ccc5ccc(=O)oc5c4)ncnc32)CC1 [Example 75]
Target of assay: GPR119 receptor (Mesocricetus auratus, UniProt A0A1U8CD06)
EC50 (µM): 1.8
//
Molecule: CC(C)(C)OC(=O)N1CCC(n2ncc3c(Oc4ccc(S(C)(=O)=O)c(F)c4)ncnc32)CC1 [Example 61]
Target of assay: GPR119 receptor (Mesocricetus auratus, UniProt A0A1U8CD06)
EC50 (µM): 0.095
//
Molecule: CS(=O)(=O)c1ccc(Oc2ncnc3c2cnn3C2CCN(C(=O)OCC(Cl)(Cl)Cl)CC2)cc1 [Example 115]
Target of assay: GPR119 receptor (Mesocricetus auratus, UniProt A0A1U8CD06)
EC50 (µM): 0.018
//
Molecule: CC(C)(C)OC(=O)N1CCCC(n2ncc3c(Oc4ccccc4C#N)ncnc32)C1 (centres unmarked) [Example 90]
Target of assay: GPR119 receptor (Mesocricetus auratus, UniProt A0A1U8CD06)
EC50 (µM): 0.12
//
Molecule: CC(C)CS(=O)(=O)N1CCC(n2ncc3c(Oc4ccc(S(C)(=O)=O)cc4)ncnc32)CC1 [Example 171]
Target of assay: GPR119 receptor (Mesocricetus auratus, UniProt A0A1U8CD06)
EC50 (µM): 0.4
//
Molecule: CC(C)(C)OC(=O)N1CCC(n2ncc3c(Oc4cccnc4C#N)ncnc32)CC1 [Example 99]
Target of assay: GPR119 receptor (Mesocricetus auratus, UniProt A0A1U8CD06)
EC50 (µM): 0.2
//
Molecule: CS(=O)(=O)c1ccc(Oc2ncnc3c2cnn3C2CCN(C(=O)OC(C(F)(F)F)C(F)(F)F)CC2)cc1 [Example 112]
Target of assay: GPR119 receptor (Mesocricetus auratus, UniProt A0A1U8CD06)
EC50 (µM): 0.5
//
Molecule: CC(C)(C)OC(=O)N1CCC(n2ncc3c(Oc4ccc(Cl)c(C(F)(F)F)c4)ncnc32)CC1 [Example 55]
Target of assay: GPR119 receptor (Mesocricetus auratus, UniProt A0A1U8CD06)
EC50 (µM): 0.15
//
Molecule: CC(C)(C)OC(=O)N1CCC(n2ncc3c(Oc4ccc(S(C)(=O)=O)cc4)ncnc32)CC1 [Example 59]
Target of assay: GPR119 receptor (Mesocricetus auratus, UniProt A0A1U8CD06)
EC50 (µM): 0.043
//
Molecule: CC(C)(C)CC(=O)N1CCC(n2ncc3c(Oc4ccc(S(C)(=O)=O)cc4)ncnc32)CC1 [Example 144]
Target of assay: GPR119 receptor (Mesocricetus auratus, UniProt A0A1U8CD06)
EC50 (µM): 0.27
//
Molecule: Cc1nn(C2CCN(C(=O)OC(C)C)CC2)c2ncnc(Oc3ccc(S(C)(=O)=O)cc3)c12 [Example 22]
Target of assay: GPR119 receptor (Mesocricetus auratus, UniProt A0A1U8CD06)
EC50 (µM): 0.21
//
Molecule: Cc1ncccc1Oc1ncnc2c1cnn2C1CCC(c2nc(C(C)C)no2)CC1 (centres unmarked) [Example 135]
Target of assay: GPR119 receptor (Mesocricetus auratus, UniProt A0A1U8CD06)
EC50 (µM): 0.92
//
Molecule: Cc1nnnn1-c1ccc(Oc2ncnc3c2cnn3C2CCN(C(=O)OC(C)C)CC2)cc1 [Example 26]
Target of assay: GPR119 receptor (Mesocricetus auratus, UniProt A0A1U8CD06)
EC50 (µM): 0.95
//
Molecule: CC(C)(C)OC(=O)N1CCC(n2ncc3c(Oc4ccc(C(F)(F)F)cc4Cl)ncnc32)CC1 [Example 54]
Target of assay: GPR119 receptor (Mesocricetus auratus, UniProt A0A1U8CD06)
EC50 (µM): 0.083
//
Molecule: Cc1ncccc1Oc1ncnc2c1cnn2C1CCN(C(=O)OCc2ccccc2)CC1 [Example 124]
Target of assay: GPR119 receptor (Mesocricetus auratus, UniProt A0A1U8CD06)
EC50 (µM): 0.24
//
Molecule: CC(C)OC(=O)N1CCC(n2ncc3c(Oc4ccc(S(C)(=O)=O)c(F)c4)ncnc32)CC1 [Example 24]
Target of assay: GPR119 receptor (Mesocricetus auratus, UniProt A0A1U8CD06)
EC50 (µM): 0.098
//
Molecule: CC(C)OC(=O)N1CCC(n2ncc3c(Oc4c(C#N)ccc(F)c4F)ncnc32)CC1 [Example 20]
Target of assay: GPR119 receptor (Mesocricetus auratus, UniProt A0A1U8CD06)
EC50 (µM): 0.57
//
Molecule: CC(C)(C)OC(=O)N1CCCC(n2ncc3c(Oc4ccc(S(C)(=O)=O)cc4)ncnc32)C1 (racemic) [Example 87]
Target of assay: GPR119 receptor (Mesocricetus auratus, UniProt A0A1U8CD06)
EC50 (µM): 0.37
//
Molecule: CC(C)c1noc([C@H]2CC[C@H](n3ncc4c(Oc5ccc(S(C)(=O)=O)cc5F)ncnc43)CC2)n1 [Example 132]
Target of assay: GPR119 receptor (Mesocricetus auratus, UniProt A0A1U8CD06)
EC50 (µM): 0.35
//
Molecule: Cc1nc(-n2cncn2)ccc1Nc1ncnc2c1cnn2C1CCN(C(=O)OC(C)(C)C)CC1 [Example 9]
Target of assay: GPR119 receptor (Mesocricetus auratus, UniProt A0A1U8CD06)
EC50 (µM): 2.4
//
Molecule: CC(C)OC(=O)N1CCC(n2ncc3c(Oc4cc(F)c(F)cc4F)ncnc32)CC1 [Example 16]
Target of assay: GPR119 receptor (Mesocricetus auratus, UniProt A0A1U8CD06)
EC50 (µM): 0.21
//
Molecule: CC(C)(C)OC(=O)N1CCC(n2ncc3c(Oc4ccc(C#N)cc4)ncnc32)CC1 [Example 46]
Target of assay: GPR119 receptor (Mesocricetus auratus, UniProt A0A1U8CD06)
EC50 (µM): 0.48
//
Molecule: CC(OC(=O)N1CCC(n2ncc3c(Oc4ccc(S(C)(=O)=O)cc4)ncnc32)CC1)C(F)(F)F (centres unmarked) [Example 110]
Target of assay: GPR119 receptor (Mesocricetus auratus, UniProt A0A1U8CD06)
EC50 (µM): 1
//
Molecule: CC(C)(C)OC(=O)N1CCC(n2ncc3c(Oc4cccc(F)c4)ncnc32)CC1 [Example 33]
Target of assay: GPR119 receptor (Mesocricetus auratus, UniProt A0A1U8CD06)
EC50 (µM): 0.6
//
Molecule: Cc1ncccc1Oc1ncnc2c1cnn2C1CCN(C(=O)Oc2ccc([N+](=O)[O-])cc2)CC1 [Example 123]
Target of assay: GPR119 receptor (Mesocricetus auratus, UniProt A0A1U8CD06)
EC50 (µM): 2.7
//
Molecule: N#Cc1ccc(F)c(F)c1Oc1ncnc2c1cnn2C1CCN(C(=O)OC2CCCC2)CC1 [Example 119]
Target of assay: GPR119 receptor (Mesocricetus auratus, UniProt A0A1U8CD06)
EC50 (µM): 0.063
//
Molecule: CC(C)(C)OC(=O)N1CCC(n2ncc3c(Oc4ccccc4F)ncnc32)CC1 [Example 32]
Target of assay: GPR119 receptor (Mesocricetus auratus, UniProt A0A1U8CD06)
EC50 (µM): 0.19
